Tested on: Enterococcus faecium
procedureDetails: Antibacterial activity against Enterococcus faecium ATCC 27270 after 24 hrs by microtitre broth dilution method
Format: functional
conditionSummary: ATCC 27270, 24 h
observationType: MIC (µg/mL)
The response must be a number in µg/mL with no trailing unit.

So for COc1c(N2C[C@@H]3CCCN[C@@H]3C2)c(F)cc2c(=O)c(C(=O)O)cn(C3CC3)c12 , the logged MIC turned out to be 2

For this molecule ( COc1c(N2C[C@@H]3CCCN(CCCCCCCCCCCCO[C@H]4[C@@H](O[C@@H]5[C@@H](O)[C@H](O[C@H]6O[C@H](CN)[C@@H](O)C[C@H]6N)[C@@H](N)C[C@H]5N)O[C@H](CO)[C@@H](O)[C@@H]4N)[C@@H]3C2)c(F)cc2c(=O)c(C(=O)O)cn(C3CC3)c12.Cl.Cl.Cl.Cl.Cl ), measured MIC is 16

The molecule listed as O=C(O)c1cn(C2CC2)c2cc(N3CCNCC3)c(F)cc2c1=O shows MIC equal to 8

In plain terms, NC[C@H]1O[C@H](O[C@H]2[C@H](O)[C@@H](O[C@H]3O[C@H](CO)[C@@H](O)[C@H](N)[C@H]3O)[C@H](N)C[C@@H]2N)[C@H](N)C[C@@H]1O has a documented MIC of 8

Reported MIC ( COc1c(N2C[C@@H]3CCCN(CCCCCCCCCCCCO[C@@H]4[C@@H](O[C@H]5O[C@H](CO)[C@@H](O)[C@H](N)[C@H]5O)[C@H](N)C[C@H](N)[C@H]4O[C@H]4O[C@H](CN)[C@@H](O)C[C@H]4N)[C@@H]3C2)c(F)cc2c(=O)c(C(=O)O)cn(C3CC3)c12.Cl.Cl.Cl.Cl.Cl ) = 16

For COc1c(N2C[C@@H]3CCCN(CCCCCCCCCCCCOC[C@H]4O[C@H](O[C@@H]5[C@@H](O)[C@H](O[C@H]6O[C@H](CN)[C@@H](O)C[C@H]6N)[C@@H](N)C[C@H]5N)[C@H](O)[C@@H](N)[C@@H]4O)[C@@H]3C2)c(F)cc2c(=O)c(C(=O)O)cn(C3CC3)c12.Cl.Cl.Cl.Cl.Cl the molecule record lists MIC as 16

----------
For each record, write down the corresponding MIC.
System: Pseudomonas aeruginosa
procedureDetails: Antibacterial activity against multidrug/extremely drug-resistant/colistin-susceptible Pseudomonas aeruginosa isolate 101885
Type: functional
Number in µg/mL, nothing else.

Lookup result for O=C(O)c1cn(C2CC2)c2cc(N3CCNCC3)c(F)cc2c1=O [CIPROFLOXACIN] ; measured MIC: 32

According to the records, this compound COc1c(N2C[C@@H]3CCCN[C@@H]3C2)c(F)cc2c(=O)c(C(=O)O)cn(C3CC3)c12 [MOXIFLOXACIN] displays MIC of 128

Record CO/N=C(\C(=O)N[C@@H]1C(=O)N2C(C(=O)[O-])=C(C[N+]3(C)CCCC3)CS[C@H]12)c1csc(N)n1 [CEFEPIME] . Reported MIC: 8

----------
For each record, write down the corresponding pIC50.
procedureDetails: Inhibition of Pseudomonas aeruginosa DNA gyrase A assessed as inhibition of DNA supercoiling using PBR322 DNA as substrate after 30 mins by SYBR Gold staining based agarose gel electrophoresis
Quick note: pIC50 values are minus log10 of concentrations in mol/L.

The recorded pIC50 for COc1c(N2C[C@@H]3CCCN(CCCCCCCCCCCCO[C@H]4[C@@H](O[C@@H]5[C@@H](O)[C@H](O[C@H]6O[C@H](CN)[C@@H](O)C[C@H]6N)[C@@H](N)C[C@H]5N)O[C@H](CO)[C@@H](O)[C@@H]4N)[C@@H]3C2)c(F)cc2c(=O)c(C(=O)O)cn(C3CC3)c12.Cl.Cl.Cl.Cl.Cl is 5.68

Data point: COc1c(N2C[C@@H]3CCCN[C@@H]3C2)c(F)cc2c(=O)c(C(=O)O)cn(C3CC3)c12 ; pIC50 = 5.59

Lab book: pIC50 of COc1c(N2C[C@@H]3CCCN(CCCCCCCCCCCCO[C@@H]4[C@@H](O[C@H]5O[C@H](CO)[C@@H](O)[C@H](N)[C@H]5O)[C@H](N)C[C@H](N)[C@H]4O[C@H]4O[C@H](CN)[C@@H](O)C[C@H]4N)[C@@H]3C2)c(F)cc2c(=O)c(C(=O)O)cn(C3CC3)c12.Cl.Cl.Cl.Cl.Cl noted as 4.26

Measured pIC50, COc1c(N2C[C@@H]3CCCN(CCCCCCCCCCCCOC[C@H]4O[C@H](O[C@@H]5[C@@H](O)[C@H](O[C@H]6O[C@H](CN)[C@@H](O)C[C@H]6N)[C@@H](N)C[C@H]5N)[C@H](O)[C@@H](N)[C@@H]4O)[C@@H]3C2)c(F)cc2c(=O)c(C(=O)O)cn(C3CC3)c12.Cl.Cl.Cl.Cl.Cl : 5.59

----------
For each record, write down the corresponding MIC.
Test system: Pseudomonas aeruginosa
procedureDetails: Antibacterial activity against Pseudomonas aeruginosa PAO1
Type: functional
Provide the reading as a plain figure in µg/mL.

response.value for COc1c(N2C[C@@H]3CCCN[C@@H]3C2)c(F)cc2c(=O)c(C(=O)O)cn(C3CC3)c12 (field: MIC) = 1

MIC reading for COc1c(N2C[C@@H]3CCCN(CCCCCCCCCCCCO[C@@H]4[C@@H](O[C@H]5O[C@H](CO)[C@@H](O)[C@H](N)[C@H]5O)[C@H](N)C[C@H](N)[C@H]4O[C@H]4O[C@H](CN)[C@@H](O)C[C@H]4N)[C@@H]3C2)c(F)cc2c(=O)c(C(=O)O)cn(C3CC3)c12.Cl.Cl.Cl.Cl.Cl : 4

----------
procedureDetails: Cytotoxicity against human JIMT1 cells assessed as reduction in cell viability after 48 hrs by MTS assay
Format: toxicity, cell-based, JIMT-1
observationType: CC50 at 48 h

Recorded CC50 at 48 h (molecule COc1c(N2C[C@@H]3CCCN(CCCCCCCCCCCCO[C@@H]4[C@@H](O[C@H]5O[C@H](CO)[C@@H](O)[C@H](N)[C@H]5O)[C@H](N)C[C@H](N)[C@H]4O[C@H]4O[C@H](CN)[C@@H](O)C[C@H]4N)[C@@H]3C2)c(F)cc2c(=O)c(C(=O)O)cn(C3CC3)c12.Cl.Cl.Cl.Cl.Cl ): > 30 µM

----------
procedureDetails: Hemolytic activity in human erythrocytes at 1000 microg/ml after 30 mins by spectrometry
Format: ADME, cell-based, Erythrocyte
conditionSummary: read-out: Activity
observationType: hemolysis at 0.5 h, 1000 microg/ml

Sure, the documented hemolysis at 0.5 h, 1000 microg/ml for COc1c(N2C[C@@H]3CCCN(CCCCCCCCCCCCO[C@@H]4[C@@H](O[C@H]5O[C@H](CO)[C@@H](O)[C@H](N)[C@H]5O)[C@H](N)C[C@H](N)[C@H]4O[C@H]4O[C@H](CN)[C@@H](O)C[C@H]4N)[C@@H]3C2)c(F)cc2c(=O)c(C(=O)O)cn(C3CC3)c12.Cl.Cl.Cl.Cl.Cl is < 2.5%

----------
Test system: Escherichia coli
procedureDetails: Antibacterial activity against Escherichia coli ATCC 25922 after 24 hrs by microtitre broth dilution method
Assay type: functional
conditionSummary: ATCC 25922, 24 h
observationType: MIC

Lab note: measured MIC of COc1c(N2C[C@@H]3CCCN(CCCCCCCCCCCCO[C@@H]4[C@@H](O[C@H]5O[C@H](CO)[C@@H](O)[C@H](N)[C@H]5O)[C@H](N)C[C@H](N)[C@H]4O[C@H]4O[C@H](CN)[C@@H](O)C[C@H]4N)[C@@H]3C2)c(F)cc2c(=O)c(C(=O)O)cn(C3CC3)c12.Cl.Cl.Cl.Cl.Cl was 0.5 µg/mL

# MIC (compound: COc1c(N2C[C@@H]3CCCN(CCCCCCCCCCCCOC[C@H]4O[C@H](O[C@@H]5[C@@H](O)[C@H](O[C@H]6O[C@H](CN)[C@@H](O)C[C@H]6N)[C@@H](N)C[C@H]5N)[C@H](O)[C@@H](N)[C@@H]4O)[C@@H]3C2)c(F)cc2c(=O)c(C(=O)O)cn(C3CC3)c12.Cl.Cl.Cl.Cl.Cl ) is 16 µg/mL

get_value(item= O=C(O)c1cn(C2CC2)c2cc(N3CCNCC3)c(F)cc2c1=O [CIPROFLOXACIN] , readout=MIC) returns ≤ 0.25 µg/mL

----------
Please go through the items and note down their MIC.
Test system: Staphylococcus epidermidis
procedureDetails: Antibacterial activity against methicillin-resistant Staphylococcus epidermidis isolate CAN-ICU 61589 after 24 hrs by microtitre broth dilution method
Assay type: functional
conditionSummary: isolate CAN-ICU 61589, 24 h
Write the number in µg/mL without appending the unit.

Query COc1c(N2C[C@@H]3CCCN(CCCCCCCCCCCCOC[C@H]4O[C@H](O[C@@H]5[C@@H](O)[C@H](O[C@H]6O[C@H](CN)[C@@H](O)C[C@H]6N)[C@@H](N)C[C@H]5N)[C@H](O)[C@@H](N)[C@@H]4O)[C@@H]3C2)c(F)cc2c(=O)c(C(=O)O)cn(C3CC3)c12.Cl.Cl.Cl.Cl.Cl yields MIC of 8

Quick note, MIC for COc1c(N2C[C@@H]3CCCN(CCCCCCCCCCCCO[C@@H]4[C@@H](O[C@H]5O[C@H](CO)[C@@H](O)[C@H](N)[C@H]5O)[C@H](N)C[C@H](N)[C@H]4O[C@H]4O[C@H](CN)[C@@H](O)C[C@H]4N)[C@@H]3C2)c(F)cc2c(=O)c(C(=O)O)cn(C3CC3)c12.Cl.Cl.Cl.Cl.Cl landed at 16
